Test system: UCLA-P3 (lung carcinoma)
assay.info: Sulforhodamine B cytotoxicity assay, UCLA-P3
Format: cell-based
cond: Homo sapiens, UCLA P-3, transformed, 72 hours
quantity.kind: pIC50
One number for each entry, as −log10 of the molar value.

Task: Return reported pIC50; argument: COc1cccc2c1C(=O)c1c(O)c3c(c(O)c1C2=O)C[C@@](O)(C(C)=O)C[C@@H]3O[C@H]1C[C@H](NC(=O)OCCS(=O)(=O)c2ccccc2)[C@H](O)[C@H](C)O1 [Compound 1]
Output: 5.51

Further cases:
Task: Reported pIC50, compound COc1cccc2c1C(=O)c1c(O)c3c(c(O)c1C2=O)C[C@@](O)(C(C)=O)C[C@@H]3O[C@H]1C[C@H](N)[C@H](O)[C@H](C)O1 [Daunomycin] : ____
Output: 6.14
